# assay_overview: Chemical stability in simulated intestinal fluid (SIF)
# Format: physicochemical
# measurement_context: SIF without enzymes, pH 6.5; 10 μm; 2 hours at 37° C.; substance amount remaining
# Description: 1) Determination of chemical stability in simulated intestinal fluid, simulated gastric fluid and human blood plasma. SGF concentrate without enzymes, pH=1,4 (Sigma Ireland, cat #01651) was used as simulated gastric fluid. Initial candidate solution (10 mM in DMSO) was diluted with a SGF working solution to a concentration of 10 μm (test solution). The test solution was incubated in a dry block thermostat for 2 hours at 37° C. […] Substance amount in % in a sample after thermostatting was determined. […]
Where a name gives a salt, the structure may show the parent alone.
measure_name: Stability in SIF, % (%)

compound: C=CC(=O)Nc1cc(Nc2cc(C(=O)c3ccc(N4CC(OC)C4)cc3)ccn2)c(OC)cc1N(C)CCN(C)C (racemic) [EGFR_3365_53]
measure_name: Stability in SIF, %
value_observed: 98.8
//
compound: C=CC(=O)Nc1cc(Nc2cc(C(=O)c3ccc(OC)cc3)ccn2)c(OC)cc1N(C)CCN(C)C [EGFR_3365_51]
measure_name: Stability in SIF, %
value_observed: 100.0
//
compound: C=CC(=O)Nc1cc(Nc2nccc(C(=O)c3ccc(Br)cc3)n2)c(OC)cc1N(C)CCN(C)C [EGFR_3365_13]
measure_name: Stability in SIF, %
value_observed: 100.0
//
compound: C=CC(=O)Nc1cc(Nc2nccc(C(=O)c3ccc(N4CCN(C)CC4)cc3)n2)c(OC)cc1N(C)CCN(C)C [EGFR_3365_62, formate]
measure_name: Stability in SIF, %
value_observed: 100.0
//
compound: C=CC(=O)Nc1cc(Nc2nccc(C(=O)c3ccc(Oc4ccccc4)cc3)n2)c(OC)cc1N(C)CCN(C)C [EGFR_3365_17]
measure_name: Stability in SIF, %
value_observed: 98.8
//
compound: C=CC(=O)Nc1cc(Nc2cc(C(=O)c3ccc(N(C)C)cc3)ccn2)c(OC)cc1N(C)CCN(C)C.O=C(O)C(F)(F)F [EGFR_3365_4]
measure_name: Stability in SIF, %
value_observed: 100.0
//
compound: C=CC(=O)Nc1cc(Nc2nccc(C(=O)c3ccccc3[N+](=O)[O-])n2)c(OC)cc1N(C)CCN(C)C [EGFR_3365_36]
measure_name: Stability in SIF, %
value_observed: 100.0
